# Lookup of reported Residual activity keyed by entry
- Tested on: cyclodextrin glycosyltransferase (E.C. 2.4.1.19)
- Assay type: biochemical, Micrococcus varians M 849
- run.conditions: pH 7

>  <molecule>
O=C(O)CI [Monoiodoacetic acid]

>  <unit.descriptor>
%

>  <Residual activity>
97

$$$$
>  <molecule>
[Cl-].[Cl-].[Co+2] [CoCl2]

>  <unit.descriptor>
%

>  <Residual activity>
88

$$$$
>  <molecule>
[Cl-].[Cl-].[Zn+2] [ZnCl2]

>  <unit.descriptor>
%

>  <Residual activity>
100

$$$$
>  <molecule>
O=C(O)CN(CCN(CC(=O)O)CC(=O)O)CC(=O)O [Ethylenediaminetetraacetic acid]

>  <unit.descriptor>
%

>  <Residual activity>
2

$$$$
>  <molecule>
[Ca+2].[Cl-].[Cl-] [CaCl2, calcium chloride]

>  <unit.descriptor>
%

>  <Residual activity>
100

$$$$
>  <molecule>
O=S(=O)([O-])[O-].[Cu+2] [CuSO4]

>  <unit.descriptor>
%

>  <Residual activity>
6

$$$$
>  <molecule>
O=S(=O)([O-])[O-].[Mg+2] [MgSO4]

>  <unit.descriptor>
%

>  <Residual activity>
100

$$$$
>  <molecule>
O=C(O)c1cc[c]([Hg][Cl])cc1 [p-Chloromercuribenzoic acid]

>  <unit.descriptor>
%

>  <Residual activity>
95

$$$$
>  <molecule>
[Cl-].[Cl-].[Mg+2] [MgCl2]

>  <unit.descriptor>
%

>  <Residual activity>
100

$$$$
>  <molecule>
O=S(=O)([O-])[O-].[Fe+2] [FeSO4]

>  <unit.descriptor>
%

>  <Residual activity>
10

$$$$
>  <molecule>
c1cnc2c(c1)ccc1cccnc12 [O-Phenanthroline]

>  <unit.descriptor>
%

>  <Residual activity>
100

$$$$

These measurements were taken from patent US4317881A.
